system: MDA-MB-435; assay: NCI tumour cell line growth inhibition, 48 h
The source made the active and inactive calls. Rule as the data show it: active = GI50 up to about 1.1 µM and inactive = higher.
property: GI50

Problem: Query: GI50; subject: CN1CCN(c2ccc3[nH]c(-c4ccc5[nH]c(CCCc6ccc(N(CCCl)CCCl)cc6)nc5c4)nc3c2)CC1
Result: > 100 µM (inactive)

Problem: Query: GI50; subject: CC(=O)O[C@H]1C[C@H]2[C@@H]([C@H](OC(C)=O)C[C@@H]3CC4(CC[C@@]32C)OOC2(CCCCC2)OO4)[C@@H]2CC[C@H]([C@H](C)CCC(N)=O)[C@@]12C
Result: 1.65 µM (inactive)

Problem: Query: GI50; subject: c1ccc(CSc2nnc3c4ccccc4c4ccccc4c3n2)cc1
Result: 58.1 µM (inactive)

Problem: Query: GI50; subject: Cc1ccc2c(c1)[nH]c(=S)n2C=C1C(=O)CC(C)(C)CC1=O
Result: > 100 µM (inactive)

Problem: Query: GI50; subject: CC1=CC(=O)/C(=C/n2c(=S)[nH]c3cc(C)ccc32)C(=O)O1
Result: > 100 µM (inactive)

Problem: Query: GI50; subject: CC(=O)O[C@H]1CC[C@H]2[C@@H]3CC[C@H]4Nc5c(cnn5S(C)(=O)=O)C[C@]4(C)[C@H]3CC[C@]12C
Result: > 100 µM (inactive)

Problem: Query: GI50; subject: CN1C2CCC1C(CO)C(=O)C2 (stereo not drawn)
Result: > 100 µM (inactive)

Problem: Query: GI50; subject: O=C1/C(=C/c2ccccc2)CN(C(=O)/C=C/c2ccccc2)C/C1=C\c1ccccc1
Result: 1.93 µM (inactive)
